Molecular target: p38α (Homo sapiens)
Construct: p38 MAP Kinases are recombinant human full-length proteins with an amino-terminal GST fusion; GST (N)
Sequence (Q16539 whole entry, the tested form may be a part): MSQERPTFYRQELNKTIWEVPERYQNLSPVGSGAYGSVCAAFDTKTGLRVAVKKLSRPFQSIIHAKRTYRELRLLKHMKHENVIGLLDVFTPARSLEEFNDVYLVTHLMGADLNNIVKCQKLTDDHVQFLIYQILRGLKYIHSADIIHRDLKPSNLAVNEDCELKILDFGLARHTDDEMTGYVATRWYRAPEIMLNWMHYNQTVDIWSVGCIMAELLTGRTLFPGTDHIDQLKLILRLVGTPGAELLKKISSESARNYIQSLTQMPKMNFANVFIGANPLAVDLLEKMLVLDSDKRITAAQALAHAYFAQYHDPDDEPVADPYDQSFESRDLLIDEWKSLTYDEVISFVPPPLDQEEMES
Assay: p38 MAP Kinase assay, ATF2 phosphorylation (ELISA)
Conditions: 40 μM ATP
Text: Compounds of the invention are screened for the ability to inhibit ATF2 phosphorylation by p38 MAP Kinase in vitro. […]
Readout Name: IC50 (nM)

See these solved cases before continuing.
In [3]: df
Out[3]:
                                   compound  data_value
0  CC(=O)N1CCC(Nc2nccc(-c3c(-c4ccc(F)cc4Cl)nc4occn34)n2)CC1         1.3
1  c1ccc(-c2nc3sccn3c2-c2ccnc(N3CCOCC3)n2)cc1         113
2  CN(C)CCNc1nccc(-c2c(-c3ccc(F)cc3)nc3occn23)n1         480
3  CN(CCO)c1nccc(-c2c(-c3ccc(F)cc3)nc3sccn23)n1        1000
4  Nc1ccc(CCNc2nccc(-c3c(-c4ccc(F)cc4)nc4occn34)n2)cc1        1.73

1 = COCC(C)Nc1nccc(-c2c(-c3ccc(F)cc3)nc3sccn23)n1 (stereo not drawn)
2 = CC(C)(C)OC(=O)N1CCC(Nc2nccc(-c3c(-c4ccc(F)cc4F)nc4occn34)n2)CC1
(Q) Which item exceeds the other in IC50, 1 or 2 ? In your reply, give the label of the chosen option.
(A) 1

P = OC(CNc1nccc(-c2c(-c3ccc(F)cc3)nc3occn23)n1)c1ccccc1 (stereo not drawn) [LII]
Q = CC(CO)Nc1nccc(-c2c(-c3ccc(F)cc3)nc3occn23)n1 (stereo not drawn) [XLI]
R = CN(C)CC(C)(C)CNc1nccc(-c2c(-c3ccc(F)cc3)nc3sccn23)n1
(Q) Please give the order of these compounds when sorted by IC50, largest value leading. Provide your answer as the labels ordered per the instruction.
(A) P, R, Q

a = CC(C)(CO)CNc1nccc(-c2c(-c3ccc(F)cc3)nc3sccn23)n1
b = Fc1ccc(-c2nc3occn3c2-c2ccnc(NC3CCNCC3)n2)c(Cl)c1
(Q) Looking at recorded values for IC50, does a or b come in lower? In your reply, give the label of the chosen option.
(A) a
(a: 1.56 nM, b: 7 nM)

I = CC(C)[C@@H](CO)Nc1nccc(-c2c(-c3ccc(F)cc3)nc3sccn23)n1
II = O[C@H]1Cc2ccccc2[C@H]1Nc1nccc(-c2c(-c3ccc(F)cc3)nc3occn23)n1
III = COc1ccc(CNc2nccc(-c3c(-c4ccc(F)cc4)nc4sccn34)n2)cc1
IV = Fc1ccc(-c2nc3occn3c2-c2ccnc(NCCN3CCN(Cc4ccccc4)CC3)n2)cc1
V = CCOC(=O)Cc1csc2nc(-c3ccc(F)cc3)c(-c3ccnc(SC)n3)n12
(Q) Please give the order of these compounds when sorted by IC50, largest value leading. Provide your answer as the labels ordered per the instruction.
(A) V, IV, II, III, I
(V: 1000 nM, IV: 258 nM, II: 97.9 nM, III: 65.5 nM, I: 1.13 nM)

---

# Lookup of reported ED50 keyed by entry
Tested on: collagen-induced arthritis in rats
Experiment: In vivo established type II collagen arthritis study
Set-up: species or system Female Lewis rats
Conditions: Rattus norvegicus, po, oral gavage bid, days 1-7 of arthritis, first column so headed (c3), read-out: ED50 summed ankle histology
Give a bare numeral; the unit mg/kg is implied.

(Q) Request the reported ED50 associated with `Fc1ccc(-c2nc3occn3c2-c2ccnc(NC3CCNCC3)n2)cc1`
(A) 7.6

---

Target: p38β (Homo sapiens, UniProt Q15759)
Construct: p38 MAP Kinases are recombinant human full-length proteins with an amino-terminal GST fusion; GST (N); purchased Upstate (Charlottesville, Va.); host or cells: E. coli
Sequence (Q15759 whole entry, the tested form may be a part): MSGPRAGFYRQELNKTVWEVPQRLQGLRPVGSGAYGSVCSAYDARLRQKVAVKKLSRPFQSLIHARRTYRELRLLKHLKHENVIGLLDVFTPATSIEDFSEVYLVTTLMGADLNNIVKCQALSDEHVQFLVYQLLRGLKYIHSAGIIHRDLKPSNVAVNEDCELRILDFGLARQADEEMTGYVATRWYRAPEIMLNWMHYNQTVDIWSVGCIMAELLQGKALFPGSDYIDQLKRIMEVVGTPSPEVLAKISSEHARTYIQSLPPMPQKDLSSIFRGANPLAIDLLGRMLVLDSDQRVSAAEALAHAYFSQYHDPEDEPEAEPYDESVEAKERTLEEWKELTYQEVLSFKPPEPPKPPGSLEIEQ
Assay: Kinase selectivity, ATF2 phosphorylation ELISA
Assay type: biochemical
Readout Name: pIC50
Please express pIC50 as -log10 of the molar concentration.

See these solved cases before continuing.
>>> print(df.to_string())
                                   molecule                          target_desc  readout_name  data_value
0  Fc1ccc(-c2nc3occn3c2-c2ccnc(NC3CN4CCC3CC4)n2)cc1 (stereo not shown)  p38β (Homo sapiens, UniProt Q15759)         pIC50        5.89
1  CN(C)CC(C)(C)CNc1nccc(-c2c(-c3ccc(F)cc3)nc3occn23)n1  p38β (Homo sapiens, UniProt Q15759)         pIC50        6.54
2  CN1[C@@H]2CC[C@H]1C[C@@H](Nc1nccc(-c3c(-c4ccc(F)cc4)nc4occn34)n1)C2  p38β (Homo sapiens, UniProt Q15759)         pIC50        7.61

--- query ---
(Q) Request the reported pIC50 associated with `Fc1ccc(-c2nc3occn3c2-c2ccnc(N[C@H]3CN4CCC3CC4)n2)cc1`
(A) 6.82

---

Target: PKBβ (Homo sapiens, UniProt P31751)
Construct: purchased Upstate (Charlottesville, Va.)
Sequence (P31751 whole entry, species assumed): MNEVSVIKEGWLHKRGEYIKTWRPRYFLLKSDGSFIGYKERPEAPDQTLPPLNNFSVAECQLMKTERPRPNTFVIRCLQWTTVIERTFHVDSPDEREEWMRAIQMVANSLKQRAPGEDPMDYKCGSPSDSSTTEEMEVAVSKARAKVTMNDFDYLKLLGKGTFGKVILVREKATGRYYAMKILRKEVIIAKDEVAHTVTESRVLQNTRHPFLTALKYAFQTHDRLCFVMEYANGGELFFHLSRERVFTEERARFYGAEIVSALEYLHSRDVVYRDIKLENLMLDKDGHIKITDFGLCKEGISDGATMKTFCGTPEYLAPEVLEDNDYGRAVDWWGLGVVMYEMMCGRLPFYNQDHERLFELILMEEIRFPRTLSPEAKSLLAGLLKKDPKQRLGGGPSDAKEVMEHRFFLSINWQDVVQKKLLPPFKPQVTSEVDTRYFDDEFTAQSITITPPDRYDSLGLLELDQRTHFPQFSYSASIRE
Experiment: Broad selectivity panel, 32P incorporation
Assay type: biochemical
Conditions: 1 μM compound, 40 μM ATP; read-out: Percent inhibition PKBβ
Readout Name: inhibition at 1 µM (%)

In [3]: df
Out[3]:
                                item_smiles  measurement_unit  data_value
0  CS(=O)(=O)N1CCC(Nc2nccc(-c3c(-c4ccc(F)cc4)nc4occn34)n2)CC1                 %         -30
1  CN(C)CC(C)(C)CNc1nccc(-c2c(-c3ccc(F)cc3)nc3occn23)n1                 %         -19

1 = CC(=O)N1CCC(Nc2nccc(-c3c(-c4ccc(F)cc4)nc4occn34)n2)CC1
2 = Fc1ccc(-c2nc3occn3c2-c2ccnc(NC3CCNCC3)n2)cc1
(Q) Looking at recorded values for inhibition at 1 µM, does 1 or 2 come in lower? In your reply, give the label of the chosen option.
(A) 2
(2: 13%, 1: 41%)

---

# Lookup of reported IC50 keyed by entry
Biological target: p38γ (Homo sapiens, UniProt P53778)
Construct: p38 MAP Kinases are recombinant human full-length proteins with an amino-terminal GST fusion; GST (N)
Sequence (P53778 whole entry, the tested form may be a part): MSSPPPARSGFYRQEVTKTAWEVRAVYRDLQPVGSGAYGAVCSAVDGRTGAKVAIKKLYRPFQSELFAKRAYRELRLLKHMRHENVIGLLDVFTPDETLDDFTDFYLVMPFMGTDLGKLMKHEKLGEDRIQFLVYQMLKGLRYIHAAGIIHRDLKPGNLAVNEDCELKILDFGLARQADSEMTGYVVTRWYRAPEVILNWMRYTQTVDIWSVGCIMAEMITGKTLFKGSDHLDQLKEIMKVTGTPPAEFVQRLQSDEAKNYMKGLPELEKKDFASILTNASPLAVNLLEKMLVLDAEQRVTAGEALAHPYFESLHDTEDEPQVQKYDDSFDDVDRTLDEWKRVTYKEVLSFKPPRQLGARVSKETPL
Test: Kinase selectivity, ATF2 phosphorylation ELISA

See these solved cases before continuing.
In [3]: df
Out[3]:
                                   molecule  data_value
0  Fc1ccc(-c2nc3occn3c2-c2ccnc(N[C@H]3CN4CCC3CC4)n2)cc1 [LXXXVII]     59.5 µM
1  CS(=O)(=O)N1CCC(Nc2nccc(-c3c(-c4ccc(F)cc4)nc4occn34)n2)CC1 [CCLXXIX]    > 100 µM
2  CN1[C@@H]2CC[C@H]1C[C@@H](Nc1nccc(-c3c(-c4ccc(F)cc4)nc4occn34)n1)C2 [CCLXXXI]    > 100 µM
3  Fc1ccc(-c2nc3occn3c2-c2ccnc(NC3CN4CCC3CC4)n2)cc1 (centres unmarked) [LXXXIV]   > 81.3 µM

--- query ---
(Q) Request the reported IC50 associated with Fc1ccc(-c2nc3occn3c2-c2ccnc(N[C@@H]3CN4CCC3CC4)n2)cc1 [LXXI]
(A) > 519 µM

---

Target: CaMKIV (Homo sapiens, UniProt Q16566)
Construct: purchased Upstate (Charlottesville, Va.)
Sequence (Q16566 1-473): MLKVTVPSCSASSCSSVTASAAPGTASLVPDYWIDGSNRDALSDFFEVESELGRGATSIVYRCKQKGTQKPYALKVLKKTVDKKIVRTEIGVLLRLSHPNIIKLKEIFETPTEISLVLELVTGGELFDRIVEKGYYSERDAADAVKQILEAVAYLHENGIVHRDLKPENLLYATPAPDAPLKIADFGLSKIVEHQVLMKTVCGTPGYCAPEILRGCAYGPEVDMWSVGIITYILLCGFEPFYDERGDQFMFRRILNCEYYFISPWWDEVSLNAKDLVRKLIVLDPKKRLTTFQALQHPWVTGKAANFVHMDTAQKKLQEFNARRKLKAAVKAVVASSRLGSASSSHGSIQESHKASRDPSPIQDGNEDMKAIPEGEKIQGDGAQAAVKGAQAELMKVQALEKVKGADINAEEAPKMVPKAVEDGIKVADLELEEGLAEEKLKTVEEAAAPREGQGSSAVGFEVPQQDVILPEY
Experiment: Broad selectivity panel, 32P incorporation
Format: biochemical
Conditions: 1 μM compound, 40 μM ATP; read-out: Percent inhibition CaMKIV
Protocol: Various compounds of the present invention are screened against a panel of 24 additional kinases (Upstate, Charlottesville, Va.). Compounds are tested 0.1 μM and 1 μM in reactions containing 40 μM ATP. Incorporation of radiolabeled phosphate (^32P) into each kinase substrate is measured in the presence and absence of test compound. Results are reported as the percent decrease in the amount of ^32P incorporated into the substrate in the presence of compound, compared to buffer control.
Readout Name: inhibition at 1 µM (%)

>>> df
                                item_smiles  measurement_unit  data_value
0  Fc1ccc(-c2nc3occn3c2-c2ccnc(N[C@H]3CN4CCC3CC4)n2)cc1                 %          10
1  Fc1ccc(-c2nc3occn3c2-c2ccnc(N[C@@H]3CN4CCC3CC4)n2)cc1                 %           6
2  CS(=O)(=O)N1CCC(Nc2nccc(-c3c(-c4ccc(F)cc4)nc4occn34)n2)CC1                 %          -2

1 = CN(C)CC(C)(C)CNc1nccc(-c2c(-c3ccc(F)cc3)nc3occn23)n1
2 = CC(=O)N1CCC(Nc2nccc(-c3c(-c4ccc(F)cc4)nc4occn34)n2)CC1
(Q) Looking at recorded values for inhibition at 1 µM, does 1 or 2 come in lower? In your reply, give the label of the chosen option.
(A) 1
(1: 7%, 2: 21%)
